Tested On: T1, recombinant human tissue transglutaminase (human, UniProt P21980 1-687, limits assumed)
T1 construct: also called tTGase; tTG
T1 sequence (looked up): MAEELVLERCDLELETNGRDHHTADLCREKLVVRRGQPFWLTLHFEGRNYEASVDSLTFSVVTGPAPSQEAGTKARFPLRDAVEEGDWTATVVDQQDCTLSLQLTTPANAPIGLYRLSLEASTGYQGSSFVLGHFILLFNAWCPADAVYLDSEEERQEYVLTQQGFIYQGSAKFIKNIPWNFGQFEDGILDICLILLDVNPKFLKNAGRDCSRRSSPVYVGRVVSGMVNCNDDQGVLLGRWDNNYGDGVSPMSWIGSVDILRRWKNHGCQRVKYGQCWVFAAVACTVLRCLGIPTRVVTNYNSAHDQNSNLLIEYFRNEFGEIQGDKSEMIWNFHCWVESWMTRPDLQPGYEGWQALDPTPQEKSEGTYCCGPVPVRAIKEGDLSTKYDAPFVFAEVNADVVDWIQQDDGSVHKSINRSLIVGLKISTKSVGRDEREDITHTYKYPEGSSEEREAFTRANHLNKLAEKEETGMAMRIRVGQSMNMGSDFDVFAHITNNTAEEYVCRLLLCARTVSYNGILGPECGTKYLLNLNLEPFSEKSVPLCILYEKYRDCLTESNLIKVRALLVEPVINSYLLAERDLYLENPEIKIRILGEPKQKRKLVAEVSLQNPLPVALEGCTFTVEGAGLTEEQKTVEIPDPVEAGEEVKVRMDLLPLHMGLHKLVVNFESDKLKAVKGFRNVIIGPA
Method: time-dependent inactivation of tTG (9 uM) by 0-600 uM inhibitor; residual activity by glutamate dehydrogenase-coupled assay at 340 nm; double-reciprocal plot
*1 amine or outer side, *2 acyl side, *3 side chain or, on linkers, in order; H or OH if unused. Where no end group is shown, it is not given here. [ ]: non-standard residue; d: D form. Aci = acivicin, (2S)-amino[(5S)-3-chloro-4,5-dihydroisoxazol-5-yl]acetic acid, O=C([C@@H](N[*:1])[C@@H]1CC(Cl)=NO1)[*:2]
Readout Type: Ki
Hey, just the number and the unit after it is fine.

Q. Supply Ki value. Item: PQP[Aci]LPY (Free termini; also called PQPAciLPY; PQP-X-LPY with X = Aci) [Pro-Gln-Pro-Aci-Leu-Pro-Tyr]
A. 780 µM
